test system: DMS-114; assay: NCI tumour cell line growth inhibition, 48 h
Activity calls are given as the source filed them. Rule as the data show it: active = GI50 up to about 1.1 µM and inactive = higher.
# key: entry, value: GI50

Recorded results for 3 molecules are shown here.
CCCCN(CCCC)CC(C(=O)Nc1ccc([N+](=O)[O-])cc1[N+](=O)[O-])/C(C)=N\NC(=O)C[N+](C)(C)C (stereo not given): 31.6 µM (inactive)
O=C(CCc1cc(-c2ccccc2)[nH]c(=S)n1)Nc1ccccc1[N+](=O)[O-]: > 100 µM (inactive)
CN(C)CCOc1cc2c(c3ccccc13)-c1ccccc1C2O (stereo not given): 11.7 µM (inactive)

Please list GI50 recorded for the molecule O=C(O)/C(=C\c1ccccc1Cl)S(=O)(=O)c1ccccc1 > 100 µM (inactive)

Please list GI50 recorded for the molecule CCN(CC)CCOc1ccc(C(O)(Cc2ccc(OC)cc2)c2ccccc2)cc1 (stereo not given) 14.9 µM (inactive)

Hello, the source for this data is ChEMBL document CHEMBL1201862, in case you need it.
